B1: glmS ribozyme (parent)
chain: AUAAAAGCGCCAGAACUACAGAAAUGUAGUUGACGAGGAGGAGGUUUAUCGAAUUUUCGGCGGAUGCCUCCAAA

variants of: B1; test: self-cleavage kobs at 10000 uM GlcN6P; higher = faster cleavage; RNA array; conditions: with glucosamine-6-phosphate
Fewer inactive variants are shown than the library holds.
assay-readout: self-cleavage kobs at 10000 uM GlcN6P (s⁻¹)

sequence_chain="AUAAAAGCGCCAGAAGUACAGAAAUGUACUUGACGAGGAGGAGGUUUAUCGAAUUUUCGGCGGAUGCCUCCAAA [C16G G29C]" modifier== observed_value=0.0294
sequence_chain="AUAAAAGCGCCUGAACUACAGAAAUGUAGUUGACGAGGAGGAGGUUUAUCGAAUUUACGGCGGAUGCCUCCAAA [A12U U57A]" modifier== observed_value=0.000604
sequence_chain="AUAAAAGCGCCAGAACUACAGAAAUGUAGUUGACGAGUAGGUGGUUUAACGAAUUUUCGUCGGAUGCCUCCAAA [G38U A42U U49A G60U]" modifier=< observed_value=1e-05
sequence_chain="AUAAAUUCGCCAGAACUACAGAAAUGUAGUUGACGGGGAGGAGGUUUACCGAAUUUUGGGCGGAUGCCUCCAAA [A6U G7U A36G U49C C58G]" modifier=< observed_value=1e-05
sequence_chain="AUAAAAGCGCCAGGACUACAGAAAUGUAGUUGACGAGGCGGAGGUUUAUCGAAUUUUCGGCGGAUGCCUCCAAA [A14G A39C]" modifier== observed_value=0.0134
sequence_chain="AUAAAAGCGCCAGAACUACAGAAAUGUAAUUGACGCGGAGGAGGUUUAUCGAAUUUUCGGCGGAUGCCUCCAAA [G29A A36C]" modifier=< observed_value=1e-05
sequence_chain="AUAAAAGAGCCAGAACUACAGAAAUGUAGUUGACGAGGAGGAGGUUUAUCGAAUUUUCGGCGGUUGCCUCCAAA [C8A A64U]" modifier=< observed_value=1e-05
sequence_chain="AUAAAAGCUCCAGAACUACAGAAAUGUAGUUGACGAGGAGGAGGUUGAUCGAAUUUUCGGCGGAUGCCUCCAAA [G9U U47G]" modifier=< observed_value=1e-05
sequence_chain="AUAAAAGCGCCAGACCUACAGAAAUGUAGUUGACGAGGAGGAGGUUUAGCGAAUUUUCGGCGGAUGCCUCCAAA [A15C U49G]" modifier== observed_value=9.51e-05
sequence_chain="AUAAAAUCGCCAGAACUACAGAAAUGUAGUUGACGAGGAGGAGGUUUAUCGAAGUUUCGGCGGAUGCCUGUAAA [G7U U54G C70G C71U]" modifier== observed_value=5.65e-05
sequence_chain="AUAAAAGCGCCAGAACUACAGAAAUGUAGUUAACGAGGAGGAGGUUUAUCGAAUUUUCGGCGUAUGCCUCCAAA [G32A G63U]" modifier=< observed_value=1e-05
sequence_chain="AUAAAAGCGCCAGCACUACAGAAAUGUAGUUGACGAGGAGUAGGUUUAUCGAAUUUUCGGCGGAUGCCUCCAAA [A14C G41U]" modifier== observed_value=0.000272
sequence_chain="AUAAAAGCGCCAGAACUACAGAAAUGUAGUUGACAAGGAGAAGGUUUAUCGAAUUUUCGGCGGAUGCCUCCAAA [G35A G41A]" modifier=< observed_value=1e-05
sequence_chain="AUAAAAGCGCCAGAGCUACAGAAAUGUAAUUGACGGGGAGGAGGUUUAUCGAAUUUUCGGCGGAUGCCUCCAAA [A15G G29A A36G]" modifier=< observed_value=1e-05
sequence_chain="AUAAAAGCGCCAGAACUACAGAAAUGUAGUUGACUAGGAGGAGGUUUAUCGAAUUUUCGGAGGAUGCCUCCAAA [G35U C61A]" modifier=< observed_value=1e-05
sequence_chain="AUAAAAGCGCCAUAAUUACAGAAAUGUAGUAGUCCAGGAGGAGGUUUAUCGAAUUUUCGGCGGAUGCCUCCAAA [G13U C16U U31A A33U G35C]" modifier=< observed_value=1e-05
sequence_chain="AUAAAAGCGCCGGAACUACAGAAAUGUAGCUGACGAGGAGGAGGUUUAUCGAAUUUUCGGCGGAUGCCUCCAAA [A12G U30C]" modifier== observed_value=8.29e-05
sequence_chain="AUAAAAUCGCCUGAACUACAGAAAUGUAGUUGACUAGGAGGAGGUUUAUCUAAUUUUCGGCGGAUACCUCCAAA [G7U A12U G35U G51U G66A]" modifier=< observed_value=1e-05
sequence_chain="AUAAAAGCGCCAGCACUACAGAAAUGUAGUUGACGAGGAGGAGGUCUAUCGAAUUUUCGGCGGAUGCCUCCAAA [A14C U46C]" modifier== observed_value=0.000326
sequence_chain="AUAAAAGCGCCGGCACUACAGAAAUGUAGUUGACGAGGAGGAGGUUUAUCGAAUUUUCGGCGGAUGUCUCCAAA [A12G A14C C67U]" modifier== observed_value=7.11e-05
sequence_chain="AUAAAAGGGCCAGAUCUACAGAAAUGUAGUUGACGAGGAGGAGGUUUAUCGAAUUCUCGGCGGAUGCCUCCAAA [C8G A15U U56C]" modifier=< observed_value=1e-05
sequence_chain="AUAAAAGCGCCAGACCUACAGAAAUGUAGUUGACGAGGAGGAGGCUUAUCGAAUUUUCGGCGGAUGCCUCCAAA [A15C U45C]" modifier== observed_value=0.000409
